half-life values for the molecules below.
assay: Half-life in human plasma; type: ADME
Quantity name: half-life (h)

1. Cn1c(=O)c2c(ncn2CC2OCCO2)n(C)c1=O : 7
2. COC(=O)N[C@H](C(=O)N1CCC[C@H]1c1ncc(-c2ccc(-c3ccc(-c4cnc([C@@H]5CC6(CN5C(=O)[C@@H](NC(=O)OC)C(C)C)OCCO6)[nH]4)cc3)cc2)[nH]1)C(C)C : 8
3. COC(=O)N[C@H](C(=O)N1CCC[C@H]1c1nc(-c2ccc(-c3ccc(-c4c[nH]c([C@@H]5CCCN5C(=O)[C@@H](NC(=O)OC)C(C)C)n4)cc3)cc2)c[nH]1)C(C)C : 12
4. CC1(C)O[C@@H]2[C@@H](CO[C@@]3(COS(N)(=O)=O)OC(C)(C)O[C@@H]23)O1 [TOPIRAMATE] : 21
5. N=C(N)NCC1COC2(CCCCC2)O1 (stereo unspecified) : 12
6. N=C(N)NCCN1CCCCCCC1 : 36

* * *

K values for the compounds below.
experiment: Stability of the compound in 20% aqueous dioxane solution at 30 degreeC assessed as compound hydrolysis by measuring rate constant; assay type: physicochemical; details: buffer
Quantity name: K

1. c1ccc(C2(c3ccccc3)OCCO2)cc1 : 3.6 10^-2/M/s
2. CCOC(OCC)(c1ccccc1)c1ccccc1 : 4.3 10^-1/M/s
3. Cc1ccc(C2(c3ccc(C)cc3)OCCO2)cc1 : 1.7 10^-1/M/s
4. COc1ccc(C2(c3ccc(OC)cc3)OCCO2)cc1 : 8.5 10^-1/M/s
5. Clc1ccc(C2(c3ccc(Cl)cc3)OCCO2)cc1 : 3.3 10^-3/M/s

* * *

experiment: Dissociation constant, pKa of the compound; format: physicochemical
pKa values for the compounds below.
Quantity name: pKa

1) O=c1[nH]nc(CN2CCO[C@H](OCc3cc(C(F)(F)F)cc(C(F)(F)F)c3)[C@@H]2c2ccccc2)[nH]1 : < 3
2) COc1ccc(C2=CN(CNC(C)=O)CC2=O)cc1 : < 6
3) CC(=O)NC[C@H]1CN(c2ccc(N3CCOCC3)c(F)c2)C(=O)O1 : < 6

* * *

K values for the compounds below.
test: Stability of the compound in HCL solution assessed as compound hydrolysis by measuring relative rate constant by NMR analysis; type: physicochemical; conditions: buffer
Quantity name: K

1. CCOC1(OCC)OCCCO1 : 2.3 10^9No_unit
2. C1CCC2(CC1)OCCCCO2 : 1 10^8No_unit
3. CCOC1(OCC)CCCCC1 : 1.3 10^10No_unit

* * *

test: Oral bioavailability in human; assay type: ADME, organism-based; conditions: in vivo
# bioavailability >= 60% gives Y, anything below gives N

1. CC1(C)O[C@@H]2[C@@H](CO[C@@]3(COS(N)(=O)=O)OC(C)(C)O[C@@H]23)O1 [TOPIRAMATE] : Y
2. Nc1ccn([C@@H]2O[C@H](CO)[C@@H](O)[C@@H]2O)c(=O)n1 : N
3. Cn1c(=O)c2c(ncn2CC2OCCO2)n(C)c1=O : Y
4. CC(C)[C@H](N)C(=O)OCC(CO)OCn1cnc2c(=O)nc(N)[nH]c21 (stereo partly specified) : Y
5. Nc1nc(Cl)nc2c1ncn2[C@H]1C[C@H](O)[C@@H](CO)O1 : N

* * *

test: Chemical stability of the compound assessed as acid-catalyzed hydrolysis by measuring rate constant; format: physicochemical
Quantity name: Drug metabolism

1. Nc1ncnc2c1ncn2[C@@H]1O[C@H](CO)[C@@H](O)[C@H]1O [ADENOSINE] : 0.82 10^-3L/mol/min
2. Nc1ncnc2c1ncn2[C@@H]1O[C@H](CO)[C@H](O)[C@H]1O : 0.29 10^-3L/mol/min
3. Nc1ncnc2c1ncn2[C@@H]1O[C@H](CO)[C@H](O)[C@@H]1O : 9.6 10^-3L/mol/min
